Source of measurements: paper PMC11359702

System: HG-3 cells
Settings: 10 µM
quantity: cell viability
Show the value, then the unit it is measured in.

**Query** Using the record for O=C(C=CC12c3ccccc3C(c3ccccc31)C1C(=O)N(c3ccccc3)C(=O)C12)c1ccco1 (stereo not drawn) [Compound 24o] , report its cell viability.
**Result** 3%

**Query** Which value of cell viability has been reported for O=C(c1ccccc1)c1ccc(N2C(=O)C3C4c5ccccc5C(/C=C/C(=O)c5ccccn5)(c5ccccc54)C3C2=O)cc1 (stereo not drawn) [Compound 26n] in the records?
**Result** 4%

**Query** What value of measured cell viability is listed for O=C(/C=C/C12c3ccccc3C(c3ccccc31)C1C(=O)N(c3ccc(Cl)cc3)C(=O)C12)c1ccc(F)cc1 (stereo not drawn) [Compound 25h] ?
**Result** 35%

---

Tested on: PGA-1 cells
Experiment: alamarBlue cell viability assay
Conditions: Homo sapiens, 24 h, read-out: cell viability
I'd appreciate it if you could supply viability at 10 µM values for the items below.
Output spec: scalar in %, unitless text.

**Query** Fill blank: measured viability at 10 µM of the molecule O=C(c1ccccc1)c1ccc(N2C(=O)C3C4c5ccccc5C(/C=C/[N+](=O)[O-])(c5ccccc54)C3C2=O)cc1 (stereo not drawn) [Compound 20c] is ____.
**Result** 4

**Query** Quick one: viability at 10 µM for O=C1C2C3c4ccccc4C(C=C[N+](=O)[O-])(c4ccccc43)C2C(=O)N1c1ccc(Cl)cc1 (stereo not drawn) [Compound 20b] ?
**Result** 3

**Query** Which viability at 10 µM value is on record for O=C(/C=C/c1c2ccccc2cc2ccccc12)c1ccc(Cl)cc1 [Compound 21l] ?
**Result** 70

**Query** What does the record list as viability at 10 µM for COc1ccc(C(=O)/C=C/c2c3ccccc3cc3ccccc23)cc1 [Compound 21i] ?
**Result** 49

**Query** # lookup: viability at 10 µM of O=C1C2C3c4ccccc4C(C=C[N+](=O)[O-])(c4ccccc43)C2C(=O)N1CCCCCCN1C(=O)C2C3c4ccccc4C(C=C[N+](=O)[O-])(c4ccccc43)C2C1=O (stereo not drawn) [Compound 20f]
**Result** 17

**Query** # query: viability at 10 µM of entry O=C(/C=C/c1c2ccccc2cc2ccccc12)c1ccc(Cl)cc1Cl [Compound 21d]
**Result** 50

---

Kindly supply the reported Half-life pH 9 values for the records listed here.
Assay: HPLC stability study in phosphate buffers
Format: physicochemical
Details: pH 9 buffer, 37 °C

**Query** Look at this compound and give its reported Half-life pH 9. O=C(/C=C/C12c3ccccc3C(c3ccccc31)C1C(=O)N(c3ccc(C(=O)c4ccccc4)cc3)C(=O)C12)c1ccc(Br)cc1 (centres unmarked) [Compound 26a]
**Result** > 24 h

**Query** Look at this compound and give its reported Half-life pH 9. O=C(/C=C/C12c3ccccc3C(c3ccccc31)C1C(=O)NC(=O)C12)c1ccccn1 (centres unmarked) [Compound 23n]
**Result** > 24 h

**Query** Would you kindly share the measured Half-life pH 9 for O=C(/C=C/C12c3ccccc3C(c3ccccc31)C1C(=O)NC(=O)C12)c1ccc(I)cc1 (centres unmarked) [Compound 23g] ?
**Result** 5.5 h

**Query** Quick check: Half-life pH 9 of O=C(/C=C/C12c3ccccc3C(c3ccccc31)C1C(=O)N(c3ccccc3)C(=O)C12)c1ccc(F)cc1 (centres unmarked) [Compound 24h] ?
**Result** > 24 h

---

Tested on: PGA-1 cells
Experiment: alamarBlue cell viability assay
Settings: Homo sapiens, 24 h, read-out: cell viability
Provide the recorded viability at 10 µM for the entries that follow.
Give just the number in %; leave the unit off.

**Query** State the recorded viability at 10 µM for this entry: O=C(/C=C/c1c2ccccc2cc2ccccc12)c1ccncc1 [Compound 21m]
**Result** 43

**Query** Data request, read-out viability at 10 µM, for O=C(/C=C/c1c2ccccc2cc2ccccc12)c1ccccn1 [Compound 21n]
**Result** 47

**Query** Look up viability at 10 µM: `COC(=O)C1=C(C(=O)OC)C2(C=CC(=O)c3ccccc3)c3ccccc3C1c1ccccc12`
**Result** 58

**Query** Given O=C1C2C3c4ccccc4C(C=C[N+](=O)[O-])(c4ccccc43)C2C(=O)N1c1ccccc1 (centres unmarked) [Compound 20a] , state its recorded viability at 10 µM.
**Result** 11

**Query** Fill in: viability at 10 µM of N#CC1CC2c3ccccc3C1(/C=C/[N+](=O)[O-])c1ccccc12 (centres unmarked) [Compound 20e] is ___
**Result** 3

**Query** Could you share which viability at 10 µM value was measured for O=C(C=CC12c3ccccc3C(c3ccccc31)C1C(=O)NC(=O)C12)c1ccc(Br)cc1 (centres unmarked) [Compound 23a] ?
**Result** 3

**Query** So what's the measured viability at 10 µM for this one? O=C(/C=C/c1c2ccccc2cc2ccccc12)c1ccc2ccccc2c1 [Compound 21p]
**Result** 50

**Query** Given the entry O=C1OC(=O)C2C1C1c3ccccc3C2(/C=C/[N+](=O)[O-])c2ccccc21 (centres unmarked) [Compound 20h] , report its measured viability at 10 µM.
**Result** 2

---

Test system: HG-3 cells
Test: LDH cytotoxicity assay (CytoTox 96)
Assay type: cell-based
Conditions: HG-3, 10 µM, 24 h, lysis solution = 100%
Protocol: The lactate dehydrogenase (LDH) assay is used to assess the membrane integrity of cells as a function of the cytoplasmic LDH released. […] Following the treatment of the HG-3 and PGA-1 cells at 10 µM for 24 hr, the amount of LDH released was determined using an LDH assay kit from Promega (G1780). […] The cytotoxicity of the selected compounds 20a, 20f, 23a and 25n was determined using the CytoTox 96 non-radioactive cytotoxicity assay (Promega Corporation; 2800 Woods Hollow Road, Madison, WI, USA). […]
quantity: LDH release (cytotoxicity, % cell death) (%)
Give the quantity in %, number only.

**Query** Endpoint output: LDH release (cytotoxicity, % cell death) of O=C(C=CC12c3ccccc3C(c3ccccc31)C1C(=O)NC(=O)C12)c1ccc(Br)cc1 (stereo not shown) [Compound 23a] . Value?
**Result** 25

**Query** // LDH release (cytotoxicity, % cell death) lookup, key: O=C1C2C3c4ccccc4C(C=C[N+](=O)[O-])(c4ccccc43)C2C(=O)N1CCCCCCN1C(=O)C2C3c4ccccc4C(C=C[N+](=O)[O-])(c4ccccc43)C2C1=O (stereo not shown) [Compound 20f]
**Result** 19

**Query** # query: LDH release (cytotoxicity, % cell death) of entry O=C1C2C3c4ccccc4C(C=C[N+](=O)[O-])(c4ccccc43)C2C(=O)N1c1ccccc1 (stereo not shown) [Compound 20a]
**Result** 33

**Query** Fill in the blank: the reported LDH release (cytotoxicity, % cell death) of O=C(C=CC12c3ccccc3C(c3ccccc31)C1C(=O)N(c3ccc(Cl)cc3)C(=O)C12)c1ccccn1 (stereo not shown) [Compound 25n] is ____.
**Result** 47

---

Assay: HPLC stability study in phosphate buffers
Format: physicochemical
Details: phosphate buffer; pH 7.4 buffer, 37 °C, 24 h, HPLC; read-out: % remaining 24 h pH 7.4
quantity: remaining at 24 h, 14.6 µg/mL (%)
// return numeric value only (unit: %, not printed)

**Query** # get_value(readout='remaining at 24 h, 14.6 µg/mL', item= O=C(/C=C/c1c2ccccc2cc2ccccc12)c1ccc(Br)cc1 [Compound 21a] )
**Result** 38.6

**Query** Look at this compound and give its reported remaining at 24 h, 14.6 µg/mL. O=C(C=CC12c3ccccc3C(c3ccccc31)C1C(=O)NC(=O)C12)c1ccc(Br)cc1 (stereo not shown) [Compound 23a]
**Result** 1.38

**Query** Can you share its remaining at 24 h, 14.6 µg/mL? I mean this compound: COc1ccc(C(=O)/C=C/c2c3ccccc3cc3ccccc23)cc1 [Compound 21i]
**Result** 26.6

**Query** # query: remaining at 24 h, 14.6 µg/mL of entry O=C(/C=C/C12c3ccccc3C(c3ccccc31)C1C(=O)N(c3ccccc3)C(=O)C12)c1ccc(Br)cc1 (stereo not shown) [Compound 24a]
**Result** 45.2

---

System: NCI 60 cancer cell line panel
Assay: NCI-60 five-dose assay, full-panel means
Format: cell-based
Settings: mean over NCI 60 cell line panel
Provide the reported Mean TGI (MID TGI, total growth inhibition) of each item.
Value expressed in µM; do not type the unit.

**Query** Consider the molecule O=C(/C=C/C12c3ccccc3C(c3ccccc31)C1C(=O)N(c3ccccc3)C(=O)C12)c1ccc(Cl)cc1 (stereo not shown) [Compound 24l] and give its measured Mean TGI (MID TGI, total growth inhibition).
**Result** 10.72

**Query** Which measured Mean TGI (MID TGI, total growth inhibition) value corresponds to O=C(/C=C/C12c3ccccc3C(c3ccccc31)C1C(=O)NC(=O)C12)c1ccc(Cl)cc1 (racemic) [Compound 23l] ?
**Result** 4.265

**Query** Given the entry O=C(c1ccccc1)c1ccc(N2C(=O)C3C4c5ccccc5C(/C=C/C(=O)c5ccccn5)(c5ccccc54)C3C2=O)cc1 (stereo not shown) [Compound 26n] , report its measured Mean TGI (MID TGI, total growth inhibition).
**Result** 100.0

**Query** Data request, read-out Mean TGI (MID TGI, total growth inhibition), for O=C(/C=C/C12c3ccccc3C(c3ccccc31)C1C(=O)NC(=O)C12)c1ccccc1 (stereo not shown) [Compound 23f]
**Result** 4.570

**Query** Report Mean TGI (MID TGI, total growth inhibition) for CCc1ccc(C(=O)/C=C/C23c4ccccc4C(c4ccccc42)C2C(=O)NC(=O)C23)cc1 (stereo not shown) [Compound 23c] please.
**Result** 4.670

**Query** Mean TGI (MID TGI, total growth inhibition) lookup needed for O=C(/C=C/C12c3ccccc3C(c3ccccc31)C1C(=O)NC(=O)C12)c1ccccn1 (stereo not shown) [Compound 23n] , thanks.
**Result** 4.570

**Query** Using the record for O=C(/C=C/C12c3ccccc3C(c3ccccc31)C1C(=O)NC(=O)C12)c1ccco1 (stereo not shown) [Compound 23o] , report its Mean TGI (MID TGI, total growth inhibition).
**Result** 3.890
